The measurements presented in this section are drawn from patent US20210323977A1.

- target-entity: human TLR8 (Homo sapiens)
- Sequence (Q9NR97 27-1041): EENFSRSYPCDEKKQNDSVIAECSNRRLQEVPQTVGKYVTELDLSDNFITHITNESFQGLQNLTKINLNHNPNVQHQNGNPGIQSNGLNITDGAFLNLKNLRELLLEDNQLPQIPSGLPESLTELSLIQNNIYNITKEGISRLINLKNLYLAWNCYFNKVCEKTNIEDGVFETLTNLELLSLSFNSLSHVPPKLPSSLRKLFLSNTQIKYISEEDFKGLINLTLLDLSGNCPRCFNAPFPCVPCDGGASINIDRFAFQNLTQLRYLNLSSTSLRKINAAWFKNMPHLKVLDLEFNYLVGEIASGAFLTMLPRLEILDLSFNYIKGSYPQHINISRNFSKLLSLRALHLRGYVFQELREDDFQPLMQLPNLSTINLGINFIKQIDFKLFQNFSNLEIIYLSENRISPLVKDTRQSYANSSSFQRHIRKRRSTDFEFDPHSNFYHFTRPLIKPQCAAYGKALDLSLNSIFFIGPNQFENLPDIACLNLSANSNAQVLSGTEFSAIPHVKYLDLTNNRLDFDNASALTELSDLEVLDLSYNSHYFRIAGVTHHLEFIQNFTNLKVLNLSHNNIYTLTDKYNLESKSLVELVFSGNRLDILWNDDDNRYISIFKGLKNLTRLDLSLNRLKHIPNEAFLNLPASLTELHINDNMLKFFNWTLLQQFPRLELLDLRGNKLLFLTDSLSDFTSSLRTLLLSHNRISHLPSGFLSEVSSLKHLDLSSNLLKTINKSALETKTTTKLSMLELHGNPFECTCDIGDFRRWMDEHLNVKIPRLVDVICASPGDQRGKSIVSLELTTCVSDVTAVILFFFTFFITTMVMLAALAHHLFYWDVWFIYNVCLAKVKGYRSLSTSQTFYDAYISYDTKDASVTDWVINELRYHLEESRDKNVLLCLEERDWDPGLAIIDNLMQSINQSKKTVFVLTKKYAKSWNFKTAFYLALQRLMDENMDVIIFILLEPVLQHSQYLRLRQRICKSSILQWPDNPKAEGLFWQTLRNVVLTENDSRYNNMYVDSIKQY
- protocol-notes: HEK293-Blue-hTLR-8 cells assay
- setup-conditions: HEK293-Blue-hTLR8 cells, SEAP reporter, R848 stimulation, 20 hrs
observable: pIC50
Scale: negative log10 of molar concentration, which is what pIC50 denotes.

C[C@H]1CN(c2ccc(C#N)c3ncccc23)C[C@@H]1C(=O)NC1CCN(C)CC1 [Example 16]    7.14
N#Cc1ccc(N2C[C@@H](C(F)(F)F)[C@H](C(=O)N[C@H]3CNC[C@H]3F)C2)c2cccnc12 [Example 47]    6.39
N#Cc1ccc(N2CC(C(=O)NCC3CNCCO3)C3(CC3)C2)c2nccnc12 (stereo not shown) [Example 13]    7.32
O=C(NC1C2CCC1CNC2)C1CN(c2ccc(C(F)(F)F)c3nccnc23)CC12CC2 (stereo not shown) [Example 12]    6.64
C[C@H]1CN(c2ccc(Cl)c3ncccc23)C[C@@H]1C(=O)NC1CCN(C)CC1 [Example 50]    6.83
CC[C@@H]1CN(c2ccc(C#N)c3ncccc23)C[C@H]1C(=O)NC1CCN(C)CC1 (relative stereo) [Example 29]    7.02
N[C@H]1CC[C@@H](NC(=O)C2CN(c3ccc(C(F)(F)F)c4nccnc34)CC23CC3)CC1 (stereo partly shown) [Example 39]    6.35
NC1CC2(C1)CC(NC(=O)C1CN(c3ccc(C(F)(F)F)c4nccnc34)CC13CC3)C2 (stereo not shown) [Example 22]    7.19

Req: Dear colleague, please send me the reported pIC50 for C[C@@H]1CN(c2ccc(C#N)c3ncccc23)C[C@H]1C(=O)N[C@H]1CNC[C@H]1F [Example 56] when you can.
Resp: 6.43

Req: Annotate the molecule C[C@H]1CN(c2ccc(C#N)c3nccnc23)C[C@@H]1C(=O)NC1CCN(C2CCNCC2)CC1 [Example 60] with its measured pIC50.
Resp: 7.32

Req: Give the reported pIC50 for this molecule. C[C@H]1CN(c2ccc([N+](=O)[O-])c3ncccc23)C[C@@H]1C(=O)NC1CCN(C)CC1 [Example 27]
Resp: 7.28

Req: Read off the recorded pIC50 for CN1CCC(NC(=O)[C@@H]2CN(c3ccc(C#N)c4ncccc34)C[C@H]2C2CC2)CC1 (relative stereo) [Example 14]
Resp: 6.71

Req: Quote pIC50 reported for C[C@@H]1CN(c2ccc(C(F)(F)F)c3nccnc23)C[C@H]1C(=O)NC1CCN(C)CC1 [Example 25] please.
Resp: 6.82

Req: Look up and report measured pIC50 for this entry: N#Cc1ccc(N2CC(C(=O)NC[C@@H]3CNCCO3)C3(CC3)C2)c2nccnc12 (single isomer, unassigned) [Example 71B]
Resp: 6.87

Req: Output pIC50 of N#Cc1ccc(N2CC(C(=O)NC[C@@H]3CNCCO3)C3(CC3)C2)c2nccnc12 (single isomer, unassigned) [Example 71A]
Resp: 7.12

Req: Return reported pIC50. Input molecule: CN1CCC(NC(=O)[C@@H]2CN(c3ccc(C#N)c4ncccc34)C[C@H]2C(F)F)CC1 (relative stereo) [Example 40]
Resp: 6.87
